Test Name: Liver microsome stability assay
Assay type: in vitro ADME
Protocol Conditions: rat liver microsomes, 10 μM, LC/MS
Quantity Measured: RLM 3 h % Stability (%)

1) CCCc1cc(F)cc(/C=N/NC(=O)CN2CCN(Cc3ccc(C#N)cc3)CC2)c1O; 49
2) O=C(CN1CCN(C(=O)c2ccc(F)cc2)CC1)N/N=C/c1cc(F)ccc1O; 86
3) CCCc1cccc(/C=N/NC(=O)CN2CCN(Cc3ccc(S(N)(=O)=O)cc3)CC2)c1O; 61
4) CCCc1cccc(/C=N/NC(=O)CN2CCN(Cc3ccccc3)CC2)c1O; 30

* * *

Test Name: Liver microsome stability assay
Format: in vitro ADME
Protocol Conditions: rat liver microsomes, 10 μM, LC/MS
Quantity Measured: RLM 3 h % Stability (%)

// worked examples, RLM 3 h % Stability included
1. O=C(CN1CCN(Cc2ccc(F)cc2)CC1)N/N=C/c1cc(F)ccc1O; 62
2. C=CCc1cc(F)cc(/C=N/NC(=O)CN2CCN(Cc3ccc(C#N)cc3)CC2)c1O; 65
3. O=C(CN1CCN(C(=O)c2ccccc2)CC1)N/N=C/c1cc(F)ccc1O; 88
4. NS(=O)(=O)c1ccc(CN2CCN(CC(=O)N/N=C/c3cc(F)ccc3O)CC2)cc1; 85

(A) C=CCc1cc(F)cc(/C=N/NC(=O)CN2CCN(C(=O)c3ccc(C(F)(F)F)cc3)CC2)c1O
(B) CCCc1cccc(/C=N/NC(=O)CN2CCN(Cc3ccc(C#N)cc3)CC2)c1O
Lookup: Pick the one with the larger RLM 3 h % Stability: A vs B # answer = label of selected item
Found: A

* * *

Tested on: U-937 cells (human lymphoma)
Test Name: 72 Hour IC50 cell death assay (sulforhodamine B)
Assay type: cell-based
Protocol Conditions: read-out: U-937 72 h IC50 (μM), Table 1, U-937 cells, 72 h
Quantity Measured: IC50 (µM)
Your answer should be a plain number; it is taken to be in µM.

// worked examples, IC50 included
1. O=C(CN1CCN(Cc2ccc(F)cc2)CC1)N/N=C/c1cc(F)ccc1O; 11.7
2. NS(=O)(=O)c1ccc(CN2CCN(CC(=O)N/N=C/c3cc(F)ccc3O)CC2)cc1; 19.6

Next:
For record C=CCc1cc(F)cc(/C=N/NC(=O)CN2CCN(Cc3ccc(F)cc3)CC2)c1O the listed IC50 is 10.3

* * *

Test Name: Liver microsome stability assay
Format: in vitro ADME
Protocol Conditions: rat liver microsomes, 10 μM, LC/MS
Quantity Measured: RLM 3 h % Stability (%)

1. O=C(CN1CCN(C(=O)c2ccc(C(F)(F)F)cc2)CC1)N/N=C/c1cc(F)ccc1O; 87
2. C=CCc1cc(F)cc(/C=N/NC(=O)CN2CCN(Cc3ccc(S(N)(=O)=O)cc3)CC2)c1O; 89
3. CCCc1cc(F)cc(/C=N/NC(=O)CN2CCN(C(=O)c3ccc(C#N)cc3)CC2)c1O; 66
4. C=CCc1cccc(/C=N/NC(=O)CN2CCN(Cc3ccccc3)CC2)c1O [PAC-1, Procaspase-Activating Compound 1, reference compound]; 38
5. O=C(CN1CCN(Cc2ccccc2)CC1)N/N=C/c1cc(F)ccc1O; 64
6. CCCc1cc(F)cc(/C=N/NC(=O)CN2CCN(C(=O)c3ccccc3)CC2)c1O; 86

* * *

Test Name: Liver microsome stability assay
Format: in vitro ADME
Protocol Conditions: rat liver microsomes, 10 μM, LC/MS
Quantity Measured: RLM 3 h % Stability (%)

(a) C=CCc1cc(F)cc(/C=N/NC(=O)CN2CCN(C(=O)c3ccc(C#N)cc3)CC2)c1O
(b) C=CCc1cc(F)cc(/C=N/NC(=O)CN2CCN(Cc3ccc(C(F)(F)F)cc3)CC2)c1O
(c) C=CCc1cccc(/C=N/NC(=O)CN2CCN(Cc3ccc(C(F)(F)F)cc3)CC2)c1O
Lookup: # rank by RLM 3 h % Stability, ascending (min first) Reply: labels, ordered per the request.
Found: c, b, a
(c: 16%, b: 49%, a: 95%)

(P) CCCc1cccc(/C=N/NC(=O)CN2CCN(C(=O)c3ccc(C#N)cc3)CC2)c1O
(Q) CCCc1cccc(/C=N/NC(=O)CN2CCN(Cc3ccc(C(F)(F)F)cc3)CC2)c1O
Lookup: // select label with min value of measured RLM 3 h % Stability from [ P , Q ] # answer = label of selected item
Found: Q
(Q: 15%, P: 61%)

* * *

System: mice
Test Name: Assessment of toxicity in vivo
Protocol Conditions: mice; scale 0 to 3, or time of death
Quantity Measured: Mouse Toxicity
Just the number.

1) C=CCc1cccc(/C=N/NC(=O)CN2CCN(Cc3ccc(F)cc3)CC2)c1O; 3

For record CCCc1cccc(/C=N/NC(=O)CN2CCN(Cc3ccccc3)CC2)c1O the listed Mouse Toxicity is 2

For record CCCc1cc(F)cc(/C=N/NC(=O)CN2CCN(C(=O)c3ccccc3)CC2)c1O the listed Mouse Toxicity is 2

For record C=CCc1cccc(/C=N/NC(=O)CN2CCN(C(=O)c3ccc(F)cc3)CC2)c1O the listed Mouse Toxicity is 2

* * *

System: U-937 cells (human lymphoma)
Test Name: 72 Hour IC50 cell death assay (sulforhodamine B)
Format: cell-based
Protocol Conditions: read-out: U-937 72 h IC50 (μM), Table 1, U-937 cells, 72 h
Quantity Measured: IC50 (µM)
Your answer should be a plain number; it is taken to be in µM.

// worked examples, IC50 included
1. CCCc1cccc(/C=N/NC(=O)CN2CCN(C(=O)c3ccccc3)CC2)c1O; 9.4
2. CCCc1cccc(/C=N/NC(=O)CN2CCN(C(=O)c3ccc(F)cc3)CC2)c1O; 7.3
3. C=CCc1cccc(/C=N/NC(=O)CN2CCN(C(=O)c3ccc(C#N)cc3)CC2)c1O; 13.1
4. O=C(CN1CCN(C(=O)c2ccc(F)cc2)CC1)N/N=C/c1cc(F)ccc1O; 15.3
5. C=CCc1cccc(/C=N/NC(=O)CN2CCN(Cc3ccc(C#N)cc3)CC2)c1O; 13.7
6. CCCc1cccc(/C=N/NC(=O)CN2CCN(Cc3ccc(F)cc3)CC2)c1O; 10

For record CCCc1cc(F)cc(/C=N/NC(=O)CN2CCN(Cc3ccc(F)cc3)CC2)c1O the listed IC50 is 7.5

For record C=CCc1cc(F)cc(/C=N/NC(=O)CN2CCN(Cc3ccccc3)CC2)c1O the listed IC50 is 9.5

For record CCCc1cc(F)cc(/C=N/NC(=O)CN2CCN(C(=O)c3ccc(F)cc3)CC2)c1O the listed IC50 is 7.5

For record O=C(CN1CCN(C(=O)c2ccccc2)CC1)N/N=C/c1cc(F)ccc1O the listed IC50 is 15.7

For record CCCc1cc(F)cc(/C=N/NC(=O)CN2CCN(C(=O)c3ccccc3)CC2)c1O the listed IC50 is 12.3

For record CCCc1cc(F)cc(/C=N/NC(=O)CN2CCN(Cc3ccccc3)CC2)c1O the listed IC50 is 8.9

* * *

Test Name: Liver microsome stability assay
Assay type: in vitro ADME
Protocol Conditions: rat liver microsomes, 10 μM, LC/MS
Quantity Measured: RLM 3 h % Stability (%)

1) CCCc1cccc(/C=N/NC(=O)CN2CCN(C(=O)c3ccccc3)CC2)c1O; 71
2) C=CCc1cccc(/C=N/NC(=O)CN2CCN(C(=O)c3ccc(F)cc3)CC2)c1O; 86

(P) CCCc1cc(F)cc(/C=N/NC(=O)CN2CCN(Cc3ccc(F)cc3)CC2)c1O
(Q) C=CCc1cccc(/C=N/NC(=O)CN2CCN(C(=O)c3ccc(C(F)(F)F)cc3)CC2)c1O
Lookup: Pick the one with the larger RLM 3 h % Stability: P vs Q # answer = label of selected item
Found: Q

* * *

Test System: procaspase-3 (Homo sapiens, UniProt P42574)
Construct: 6xHis (C); made in house; host or cells: Rosetta E. coli
Sequence (P42574 whole entry): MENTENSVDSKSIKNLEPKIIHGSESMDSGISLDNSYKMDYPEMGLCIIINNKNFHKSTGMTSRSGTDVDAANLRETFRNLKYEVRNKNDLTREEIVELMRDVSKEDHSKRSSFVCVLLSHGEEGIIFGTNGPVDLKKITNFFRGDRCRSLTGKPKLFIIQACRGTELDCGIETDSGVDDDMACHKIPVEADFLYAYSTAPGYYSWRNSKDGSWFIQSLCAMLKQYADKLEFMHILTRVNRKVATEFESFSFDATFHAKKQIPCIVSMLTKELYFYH
Test Name: Procaspase-3 activity assay (relief of zinc-mediated inhibition, Ac-DEVD-pNA cleavage)
Format: biochemical
Protocol Conditions: procaspase-3 incubated with […] ZnSO4; method gives compounds at 25 μM
Quantity Measured: Procaspase-3 (% Activity at […]) (%)

1. C=CCc1cccc(/C=N/NC(=O)CN2CCN(Cc3ccccc3)CC2)c1O [PAC-1, Procaspase-Activating Compound 1, reference compound]; 42
2. CCc1ccc(CN2CCN(CC(=O)N/N=C/c3cc(C(C)(C)C)cc(C(C)(C)C)c3O)CC2)cc1 [3{28,7}]; 60
3. COc1ccc(CN2CCN(CC(=O)N/N=C/c3cc(C(C)(C)C)cc(C(C)(C)C)c3O)CC2)cc1 [3{2,7}]; 53

(a) C=CCc1cccc(/C=N/NC(=O)CN2CCN(Cc3ccc(S(N)(=O)=O)cc3)CC2)c1O [S-PAC-1, reference compound]
(b) CC(C)(C)c1cc(/C=N/NC(=O)CN2CCN(Cc3ccc(OCc4ccccc4)cc3)CC2)c(O)c(C(C)(C)C)c1 [3{18,7}]
Lookup: Pick the one with the larger Procaspase-3 (% Activity at […]): a vs b # answer = label of selected item
Found: b
(b: 36%, a: 4%)
